Counter-ions that a name gives are not always drawn.
READOUT NAME: melting point

• Cc1cc(C#N)cc(C)c1Oc1nc(Nc2ccc(C#N)cc2)nc(NCCN2CCCC2)c1Br.Cl = 208 to 210 °C
• Cc1cc(C#N)cc(C)c1Oc1nc(Nc2ccc(C#N)cc2)nc(C)c1Br = 260 to 262 °C
• Cc1cc(C)c(Nc2nc(Nc3ccc(C#N)cc3)ncc2N)c(C)c1 (as salt: trifluoroacetate) = 224 to 225 °C

--- query ---
Any idea what its melting point is? The molecule is Cc1cc(C#N)cc(C)c1Nc1nc(Nc2ccc(C#N)cc2)nc(Cl)c1Br
259 to 260 °C
